Form field: fold change of affinity (one value per entry).
study.system: T1, Human CD3eg linker (human)
T1 construct: single-chain construct; also called recombinant human CD3
T1 chain: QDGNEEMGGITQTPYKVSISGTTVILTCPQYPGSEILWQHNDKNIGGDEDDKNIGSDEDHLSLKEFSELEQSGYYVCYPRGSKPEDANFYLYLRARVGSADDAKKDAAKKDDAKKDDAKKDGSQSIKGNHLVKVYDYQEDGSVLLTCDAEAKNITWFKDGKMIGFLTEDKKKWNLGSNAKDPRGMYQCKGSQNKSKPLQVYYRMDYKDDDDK
method.notes: SPR, vs unmutated H183/L072

binder: dBBDu183H G100hQ/dBBDu072L (antibody, name in Kabat numbering, V domains shown) VH: QVQLVESGGGLVQPGRSLRLSCAASGFTFSNAWMHWVRQAPGKGLEWVAQIKDKGNAYAAYYAPSVKGRFTISRDDSKNSIYLQMNSLKTEDTAVYYCHYVHYASASTVLPAFQVDAWGQGTTVTVSS VL: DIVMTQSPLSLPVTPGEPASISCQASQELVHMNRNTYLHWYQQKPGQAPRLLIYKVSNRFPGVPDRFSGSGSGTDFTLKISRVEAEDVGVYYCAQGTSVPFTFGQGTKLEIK
units.symbol: fold
fold change of affinity: 0.4
--
binder: dBBDu183H V100cF/dBBDu072L (antibody, name in Kabat numbering, V domains shown) VH: QVQLVESGGGLVQPGRSLRLSCAASGFTFSNAWMHWVRQAPGKGLEWVAQIKDKGNAYAAYYAPSVKGRFTISRDDSKNSIYLQMNSLKTEDTAVYYCHYVHYASASTFLPAFGVDAWGQGTTVTVSS VL: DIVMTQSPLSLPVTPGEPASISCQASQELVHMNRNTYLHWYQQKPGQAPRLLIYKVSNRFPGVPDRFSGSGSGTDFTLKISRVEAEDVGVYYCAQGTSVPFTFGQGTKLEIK
units.symbol: fold
fold change of affinity: 1.8
--
binder: dBBDu183H H96D/dBBDu072L (antibody, name in Kabat numbering, V domains shown) VH: QVQLVESGGGLVQPGRSLRLSCAASGFTFSNAWMHWVRQAPGKGLEWVAQIKDKGNAYAAYYAPSVKGRFTISRDDSKNSIYLQMNSLKTEDTAVYYCHYVDYASASTVLPAFGVDAWGQGTTVTVSS VL: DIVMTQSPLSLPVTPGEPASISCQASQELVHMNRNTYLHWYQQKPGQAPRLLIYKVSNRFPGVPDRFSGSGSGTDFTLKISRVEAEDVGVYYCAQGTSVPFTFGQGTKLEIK
units.symbol: fold
fold change of affinity: 0
--
binder: dBBDu183H L100dE/dBBDu072L (antibody, name in Kabat numbering, V domains shown) VH: QVQLVESGGGLVQPGRSLRLSCAASGFTFSNAWMHWVRQAPGKGLEWVAQIKDKGNAYAAYYAPSVKGRFTISRDDSKNSIYLQMNSLKTEDTAVYYCHYVHYASASTVEPAFGVDAWGQGTTVTVSS VL: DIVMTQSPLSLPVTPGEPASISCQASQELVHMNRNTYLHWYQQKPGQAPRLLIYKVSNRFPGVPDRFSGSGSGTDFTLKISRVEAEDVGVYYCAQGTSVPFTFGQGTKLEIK
units.symbol: fold
fold change of affinity: 0.7
--
binder: dBBDu183H V63G/dBBDu072L (antibody, name in Kabat numbering, V domains shown) VH: QVQLVESGGGLVQPGRSLRLSCAASGFTFSNAWMHWVRQAPGKGLEWVAQIKDKGNAYAAYYAPSGKGRFTISRDDSKNSIYLQMNSLKTEDTAVYYCHYVHYASASTVLPAFGVDAWGQGTTVTVSS VL: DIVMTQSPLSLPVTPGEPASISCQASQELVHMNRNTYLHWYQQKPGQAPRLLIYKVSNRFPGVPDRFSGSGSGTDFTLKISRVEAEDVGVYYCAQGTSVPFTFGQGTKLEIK
units.symbol: fold
fold change of affinity: 1

Entry source: patent US20210388087A1
